These measurements were taken from patent US20260265358A1.

Reported Kd values follow for various binders
Biological target: T1, Human Activin A Fc (human, UniProt P03970 309-424 (pig entry))
T1 construct: also called human Activin A-Fc fusion; human Activin A-Fc antigen; not shown: Fc part
T1 sequence: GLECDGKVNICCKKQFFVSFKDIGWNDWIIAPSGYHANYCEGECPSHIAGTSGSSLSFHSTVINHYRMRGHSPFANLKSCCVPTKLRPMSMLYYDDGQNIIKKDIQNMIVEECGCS
Experiment: Octet BLI, IgG, avid
Give just the numeric value; pM need not be written.

INSERT INTO measurements (binder, property_name, numeric_value) VALUES
  ('anti-Activin A antibody Clone L (IgG) (antibody, V domains shown, IgG format; also called Antibody L) VH: QVQLQESGPGLVKPSETLSLTCAVSGYSISSGYYWGWIRQPPGKGLEWIGSIYHSGSTYYNPSLKSRVTISVDTSKNQFSLKLSSVTAADTAVYYCAREAGSGYWYLSVYGMDVWGQGTTVTVSS VL: EIVLTQSPATLSVSPGERATLSCRASQSVSSNLAWYQQKPGQAPRLLIYGASTRATGIPARFSGSGSGTEFTLTISSLQSEDFAVYYCQQSDDWPWTFGGGTKVEIKR', 'Kd', 1570);

Task: Hello, please tell me recorded Kd for this one: anti-Activin A antibody Clone I (IgG) (antibody, V domains shown, IgG format; also called Antibody I) VH: QVQLVQSGAEVKKPGSSVKVSCKASGGTFSNYAISWVRQAPGQGLEWMGYIIPFFGTANYAQKFQGRVTITADESTSTAYMELSSLRSEDTAVYYCARGGSGYSTSWGSSLYWGQGTLVTVSS VL: EIVLTQSPGTLSLSPGERATLSCRASQSVSSSYLAWYQQKPGQAPRLLIYGASYRATGIPDRFSGSGSGTDFTLTISRLEPEDFAVYYCLQSGVFPYTFGGGTKVEIKR
Result: 536

Task: Hello, please tell me recorded Kd for this one: anti-Activin A antibody Clone A (IgG) (antibody, V domains shown, IgG format; also called Antibody A) VH: QVQLVQSGAEVKKPGASVKVSCKASGYTFTGYYMHWVRQAPGQGLEWMGSINPSSGGTNYAQKFQGRVTMTTDTSTSTAYMELRSLRSDDTAVYYCARARDIAAAGLGAFDYWGQGTLVTVSS VL: EIVLTQSPGTLSLSPGERATLSCRASQSVRSSYLAWYQQKPGQAPRLLIYGASSRATGIPDRFSGSGSGTDFTLTISRLEPEDFAVYYCQQYVSYPRTFGGGTKVEIKR
Result: 810
